Recorded values, source the nanobody polyreactivity screen of Harvey et al. (2022).

ASSAY_EXPLANATION: yeast display, Sf9 membrane polyspecificity reagent, FACS + sequencing; frameworks hold sequencing errors
MEASURED_METRIC: polyreactivity (PSR sort gate)

SEQ_TEXT: QVQLVESGGGLVQAGGSLRLSCAASGNTFYVKVMGWSRQAPGKERELVARITTSGGSTSYAESVKGRFTISRDNAKNTVSFQMNSMKPEDTAVYYCAASYHAFQNWEYDYWGQGTQVTVSS
VALUE_REPORTED: low polyreactivity
//
SEQ_TEXT: QVQLVESGACLVQAGGSLRLSCAASGGIFYYYAMGWYRQAPGKERELVAVISPGGGRTYYADSVKGRFTISRDIAKNTVYLQKNSLKPEDTAVYYCARDSPGDGGREVARGSYNYWGQGTQVTVSS
VALUE_REPORTED: high polyreactivity
//
SEQ_TEXT: QVQLVESGGGLVQAGGSLRLSCAASGLIFDPYAMGWYRQAPGKERELVADISSGGSTNYADSVKGRFTISRDNAKNTVYLQMTSLKPEDTAVYYCNKTIILDGYYFSLTLYDSWGQGTQVTVSS
VALUE_REPORTED: low polyreactivity
//
SEQ_TEXT: QVQLVESGGGLVQAGGSLRLSCAASGRTFRYYALGWYRQAPGKERELVASITGSGGSTTYADSVKGRFTISRDNAKNTVYLLMNSLKPEDTAVYYCAVRYPYYSYRAKLGYWGQGTQVTVSS
VALUE_REPORTED: high polyreactivity
//
SEQ_TEXT: QVQLVESGGGLVQAGGSLRLSCAASGITFSVYAMGWYRQAPRKERELVASISSGGTSTYYADSVKGRFTISRDNAKNTVYLQMNSLKPEDTPVYYCAAYSYYTRDPYSYDYWGQGTQVTVSS
VALUE_REPORTED: low polyreactivity
//
SEQ_TEXT: QGQLVESGRGLVQAGGSLRLSCAASGRTFRRYGKGWYRQAPGNERELVAAITSGGGTYYEDSVKGRVTISRDNAKNTVYLQMNSLKPEDTAVYYCAAQRVYKSSPSYDFWGQGTQVTVSS
VALUE_REPORTED: low polyreactivity
//
SEQ_TEXT: QVQLVESGGGLVQAGGSLRLSCAASGITFYVYAMGWYRQAPGKERELVAAISRRGGSTSYADSVKGRFTISRDNAKNTVYLQMNSLKPEDTAVYYCAAGPFYGGIVRRYDYWGQGTQVTVSS
VALUE_REPORTED: low polyreactivity
//
SEQ_TEXT: QVQLVESGGGLVQAGGSLRLSCAASGSIFYWNAMGWYRQAPGKERELVATITITTSTNYADSVKGRFTISRDNAKNTVYLQMNSLKPEDTAVYYCNAGAPYRYLDEYNYWGQGTQVTVSS
VALUE_REPORTED: low polyreactivity
//
SEQ_TEXT: QVQLVESGGGLVQAGGSLRLSWAASGYTFGKNAMGWYRQAPGKERELVAAISRSGGSTFYADSVKGRFTISRDNAKNTVYLQMNSLKPEDTAVYYCAAESYGYSAPYDYWGQGTQVTVSS
VALUE_REPORTED: high polyreactivity
//
SEQ_TEXT: QVQLVESGGGLVQAGGSLRLSCAASGRTIKYYAMGWYRQAPGKESELVAAISSSGGRTNYADSVKGRFTISRDNANNTVYLQMNSLKPEDTAVYYCAARFYKTYPRMNYWGQGTQVTVSS
VALUE_REPORTED: high polyreactivity
//
SEQ_TEXT: QVQLLESGGGLVQAGGSLRLSCAASGSIYVYNAMAWYRQAPGKERELVAAISRGGRTYADSVKGRFTISRDNAKNTVYLQMNSLKPEDTAVYYCAAQGYYRSWYSRQGHYDFWGQGTQVTVSS
VALUE_REPORTED: high polyreactivity
//
SEQ_TEXT: QDQLVDSGGGLVQAGGSLRLSCAASGRISGYYAMGWYRQAPGKERELVASITYRGGSTYYADSVKGRFTISRDNAKNTVYLQINSLKPEDTAVYSCNFRYRPNRGSIGQPNSGKNWYDYWGLGTQVTVSS
VALUE_REPORTED: high polyreactivity
//
SEQ_TEXT: QVQLVESGGGLVQAGGSLRLSCAASGLIFIDYAIGWYRQAPGKERELVAAITRGGARTYYADSVKGRFTISRDNAKNTVYLEMNSLKPEDTAVYYCAADRPGSRYIDVDYWGQGTQVTVSS
VALUE_REPORTED: high polyreactivity
//
SEQ_TEXT: QVQLVESGGGLVQAGGSLRLSCAASGGTFYYYAMGWSRQAPGKERELVAAISWSGVSTSYADSVKGRFTISRDNANNTVYLQMNSLKPEDTAVYYCAAGPFYYTGYEGVYWGQGTQVTVSS
VALUE_REPORTED: high polyreactivity
//
SEQ_TEXT: QVQLVESGGALVQAGGSLRLSCAPSGFTFMRYAMGWYRQAPGKERELDAAIRGTGTSTYYADSVKVRFTISRDNAKNTVYLQMNSLNPEDTAVYYCNKVAGRSPYTRYDYWAQGTQVTVSS
VALUE_REPORTED: low polyreactivity
//
SEQ_TEXT: QVQLVESGGGLVQAGGSLRLSCAASGRTLIGNAMGWYRQAPGKEREFVAAITRSGGDTYYADSVKGRFTISRDNAKNTVYLQMNSLKPEDTAVYYCAADGQLHMDYWGQGTQVTVSS
VALUE_REPORTED: high polyreactivity
//
SEQ_TEXT: QVQLVESAGGLVQAGGRLRLSCAASGFTFVYYVMGWYRQAPGKERELVAAISNSGGSTYYADSVKGRFTISRDNAKNSVYLEMNSLKPEDTAVYYCAAPPGGGKYRGYYYWGQGTQVTVSS
VALUE_REPORTED: high polyreactivity
//
SEQ_TEXT: QVQLVESGGGLVQAGGSLRLSCAASGRIFGPYAMGWSRQAPGKERELVATITWRTGSTYYADSVKGRFTISRDNAKNTVYLQMNSLKPEDTEVYYSAARYGRYSKAGDYWGQGTQVTVSS
VALUE_REPORTED: high polyreactivity
//
SEQ_TEXT: QVQLVESGGGLVQAGGSLRLSCAASGLIFARYAMGWYRQAPGKERELVAAISSRGGGTYYADSVKGRFTISRDNAKNTVYLQMNSLKPEDTAVYYCNRLRGTPVGLSIGGYYYWGQGTQVTVSS
VALUE_REPORTED: high polyreactivity
//
SEQ_TEXT: QVQLVESGGGLVQAGRSLRLSCAASGRTFVYYAMGWYRQAPGKERELVATISSSDSTNYADSVKGRFTISRDNAKNTVYLQMNSLKPEDTAVYYCAAGPKGGGYYDPFDYWGQGTQVTVSS
VALUE_REPORTED: low polyreactivity
//
SEQ_TEXT: QVQLVESGGGLVQAGGSLRLSCAASGSTFYAYAMGWYRQAPGKERELVAVITSSGSTYYADSVKGRFTISRDNAKNTVYLQMNSLKPEDTAVYYCARVSYRGYGYWGQGTQVTVSS
VALUE_REPORTED: high polyreactivity
